# Tested on: Escherichia coli TOP10
# Assay summary: shrunken log2 fold change of peptide-encoding DNA abundance (4.5 h post-induction vs induction); higher = less antimicrobial activity (less host growth inhibition)
# Run conditions: time post-induction: 4.5 h; library: site-saturation at positions 5, 18, 19, 20

Sequence code | shrunken log2 fold change
RRIRRRPPRLPRPRPRPDNQPRP | 0.0853
RRIRCRPPRLPRPRPRPSILPRP | -0.739
RRIRARPPRLPRPRPRPHAPPRP | 0.54
RRIRKRPPRLPRPRPRPILPPRP | 2.29
RRIRKRPPRLPRPRPRPFVFPRP | 0.277
RRIRSRPPRLPRPRPRPTESPRP | 0.0325
RRIRARPPRLPRPRPRPRLIPRP | 0.235
RRIRYRPPRLPRPRPRPGDEPRP | -0.0823
RRIRSRPPRLPRPRPRPACGPRP | 0.436
RRIRYRPPRLPRPRPRPTCVPRP | -0.503
RRIRFRPPRLPRPRPRPYPMPRP | -0.119
RRIRMRPPRLPRPRPRPIRHPRP | 0.017
RRIRSRPPRLPRPRPRPGHGPRP | -0.254
RRIRDRPPRLPRPRPRPRRFPRP | 0.212
RRIRLRPPRLPRPRPRPRHLPRP | -0.818

----------
Entries and their shrunken log2 fold change values follow.
# System: Escherichia coli TOP10;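 also: peptides expressed intracellularly from a pBAD plasmid library in pooled LB shake-flask culture, induced with 0.3% L-arabinose, DNA abundance read by NGS, three biological replicates, DESeq2 with apeglm shrinkage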
# Assay summary: shrunken log2 fold change of peptide-encoding DNA abundance (4.5 h post-induction vs induction); higher = less antimicrobial activity (less host growth inhibition)
# Run conditions: time post-induction: 4.5 h; library: site-saturation at positions 5, 18, 19, 20

Sequence code | shrunken log2 fold change
RRIRLRPPRLPRPRPRPNLEPRP | 0.0534
RRIRIRPPRLPRPRPRPRLIPRP | -0.199
RRIRWRPPRLPRPRPRPCVRPRP | 0.0233
RRIRLRPPRLPRPRPRPIGRPRP | 0.0169
RRIRRRPPRLPRPRPRPHSNPRP | -0.281
RRIRLRPPRLPRPRPRPRITPRP | -0.027
RRIRCRPPRLPRPRPRPCTPPRP | -0.778
RRIRIRPPRLPRPRPRPDISPRP | -0.0405
RRIRFRPPRLPRPRPRPGHAPRP | 0.192
RRIRSRPPRLPRPRPRPGGHPRP | 0.161
RRIRWRPPRLPRPRPRPAHSPRP | 0.321
RRIRKRPPRLPRPRPRPFKCPRP | -0.0191
RRIRSRPPRLPRPRPRPWDTPRP | -0.0299
RRIRVRPPRLPRPRPRPPVNPRP | 0.159
RRIRDRPPRLPRPRPRPYGRPRP | -0.0901
RRIRKRPPRLPRPRPRPWAEPRP | 0.0785
RRIRCRPPRLPRPRPRPDREPRP | 0.0186
RRIRQRPPRLPRPRPRPCFAPRP | 0.0874
RRIRTRPPRLPRPRPRPSADPRP | -0.0419
RRIRHRPPRLPRPRPRPQEVPRP | -0.0461
RRIRCRPPRLPRPRPRPSWKPRP | -0.0761
RRIRYRPPRLPRPRPRPPPPPRP | 1.2
RRIRGRPPRLPRPRPRPHMIPRP | 0.0265
RRIRFRPPRLPRPRPRPENGPRP | -0.166
RRIRLRPPRLPRPRPRPEKWPRP | -0.0497
RRIRLRPPRLPRPRPRPLCCPRP | -0.146
RRIRDRPPRLPRPRPRPFRMPRP | -0.125
RRIRCRPPRLPRPRPRPFNHPRP | -0.427
RRIRWRPPRLPRPRPRPCRMPRP | -0.0166
RRIRERPPRLPRPRPRPCKTPRP | 0.0029
RRIRRRPPRLPRPRPRPRIFPRP | 0.0808
RRIRFRPPRLPRPRPRPSTLPRP | -0.757
